Target Desc: beta-catenin-B-cell lymphoma 9 protein complex (Homo sapiens) (UniProt P35222+O00512)
Protocol Notes: Inhibition of protein interaction between beta-catenin (unknown origin)/BCL9 in human HEK293 cells transfected with beta-catenin assessed as reduction in Wnt/beta-catenin transactivation incubated for 24 hrs by Wnt-responsive FOP-Flash luciferase reporter assay
The source made the active and inactive calls. No cut-off for these calls is given here.
Write down the outcome that applies. Available outcomes: yes = active, no = inactive

Some solved cases for reference:
{"Compound": "Cl.Cl.O=C(Nc1ccc(O[C@H]2CCNC2)c(-c2ccc(F)cc2)c1)c1cnc(O[C@H]2CCNC2)c(-c2ccc(F)c(F)c2)c1", "Target Desc": "beta-catenin-B-cell lymphoma 9 protein complex (Homo sapiens) (UniProt P35222+O00512)", "Group": "yes"}
{"Compound": "Cl.Cl.O=C(Nc1ccc(O[C@H]2CCNC2)c(-c2ccc(F)cc2)c1)c1ccc(O[C@H]2CCNC2)c(C2=CCCCC2)c1", "Target Desc": "beta-catenin-B-cell lymphoma 9 protein complex (Homo sapiens) (UniProt P35222+O00512)", "Group": "yes"}
{"Compound": "Cc1ccccc1-c1cc(NC(=O)c2ccc(O[C@H]3CCNC3)c(-c3ccc(F)c(F)c3)c2)ccc1O[C@H]1CCNC1.Cl.Cl", "Target Desc": "beta-catenin-B-cell lymphoma 9 protein complex (Homo sapiens) (UniProt P35222+O00512)", "Group": "yes"}
{"Compound": "Cl.Cl.O=C(Nc1ccc(O[C@H]2CCNC2)c(-c2ccc(F)cc2)c1)c1ccc(O[C@H]2CCNC2)c(C2CCC(C(F)(F)F)CC2)c1 (stereo partly drawn)", "Target Desc": "beta-catenin-B-cell lymphoma 9 protein complex (Homo sapiens) (UniProt P35222+O00512)", "Group": "yes"}
{"Compound": "Cl.Cl.Fc1ccc(-c2cc(-c3ccc4cc(O[C@H]5CCNC5)c(-c5ccc(F)c(F)c5)cc4n3)ccc2O[C@H]2CCNC2)cc1", "Target Desc": "beta-catenin-B-cell lymphoma 9 protein complex (Homo sapiens) (UniProt P35222+O00512)", "Group": "yes"}
{"Compound": "Cl.Cl.O=C(Nc1ccc(O[C@@H]2CCNC2)c(-c2cccc(-c3nn[nH]n3)c2)c1)c1ccc(O[C@H]2CCNC2)c(-c2ccc3ccsc3c2)c1", "Target Desc": "beta-catenin-B-cell lymphoma 9 protein complex (Homo sapiens) (UniProt P35222+O00512)", "Group": "no"}
{"Compound": "Fc1ccc(-c2cc(-c3cnc4cc(O[C@H]5CCNC5)c(-c5ccc(F)c(F)c5)cc4c3)ccc2O[C@H]2CCNC2)cc1", "Target Desc": "beta-catenin-B-cell lymphoma 9 protein complex (Homo sapiens) (UniProt P35222+O00512)", "Group": "yes"}
{"Compound": "Cl.Cl.O=C(Nc1ccc(O[C@H]2CCNC2)c(-c2ccc(F)cc2)c1)c1ccc(O[C@H]2CCNC2)c(-c2ccc3ccsc3c2)c1", "Target Desc": "beta-catenin-B-cell lymphoma 9 protein complex (Homo sapiens) (UniProt P35222+O00512)", "Group": "yes"}
{"Compound": "Cl.Cl.O=C(Nc1cnc(O[C@H]2CCNC2)c(-c2ccc(F)cc2)c1)c1ccc(O[C@H]2CCNC2)c(-c2ccc(F)c(F)c2)c1", "Target Desc": "beta-catenin-B-cell lymphoma 9 protein complex (Homo sapiens) (UniProt P35222+O00512)", "Group": "yes"}
{"Compound": "Cl.Cl.O=C(Nc1ccc(O[C@H]2CCNC2)c(-c2ccc(F)cc2)c1)c1ccc(O[C@H]2CCNC2)c(-c2ccc(F)c(F)c2)c1", "Target Desc": "beta-catenin-B-cell lymphoma 9 protein complex (Homo sapiens) (UniProt P35222+O00512)", "Group": "yes"}

Write down the call the test reported for this compound. Item: Cl.Cl.O=C(Nc1ccc(O[C@@H]2CCNC2)c(-c2cccc(-c3nn[nH]n3)c2)c1)c1ccc(O[C@H]2CCNC2)c(-c2ccc(F)c(F)c2)c1
no

What do we get for Cl.Cl.O=C(Nc1ccc(O[C@H]2CCNC2)c(-c2ccc(F)cc2)c1)c1ccc(O[C@H]2CCNC2)c(-c2ccc3cc(F)ccc3c2)c1 ?
yes

What do we get for Cc1cc(F)ccc1-c1cc(NC(=O)c2ccc(O[C@H]3CCNC3)c(-c3ccc(F)c(F)c3)c2)ccc1O[C@H]1CCNC1.Cl.Cl ?
yes

###

Target Desc: beta-catenin-B-cell lymphoma 9 protein complex (Homo sapiens)
Protocol Notes: Inhibition of protein interaction between beta-catenin (unknown origin)/BCL9 in HEK293 cells transfected with beta-catenin assessed as reduction in Wnt/beta-catenin transactivation incubated for 24 hrs by Wnt-responsive TOP-Flash luciferase reporter assay
Format: cell-based
Reported Endpoint: pIC50
Remember the convention: pIC50 equals -log10 of concentration in molar.

{"Smiles Code": "Cl.Cl.O=C(Nc1ccc(O[C@@H]2CCNC2)c(-c2cccc(-c3nn[nH]n3)c2)c1)c1ccc(O[C@H]2CCNC2)c(-c2ccc(F)c(F)c2)c1", "Reported Endpoint": "pIC50", "Recorded Value": 4.60}

pIC50 lookup needed for Cl.Cl.O=C(Nc1ccc(O[C@H]2CCNC2)c(-c2ccc(F)cc2)c1)c1ccc(O[C@H]2CCNC2)c(-c2ccc(F)c(F)c2)c1 , thanks.
5.35

###

Target Desc: beta-catenin-B-cell lymphoma 9 protein complex (Homo sapiens, UniProt P35222)
Sequence (P35222 whole entry, the tested form may be a part): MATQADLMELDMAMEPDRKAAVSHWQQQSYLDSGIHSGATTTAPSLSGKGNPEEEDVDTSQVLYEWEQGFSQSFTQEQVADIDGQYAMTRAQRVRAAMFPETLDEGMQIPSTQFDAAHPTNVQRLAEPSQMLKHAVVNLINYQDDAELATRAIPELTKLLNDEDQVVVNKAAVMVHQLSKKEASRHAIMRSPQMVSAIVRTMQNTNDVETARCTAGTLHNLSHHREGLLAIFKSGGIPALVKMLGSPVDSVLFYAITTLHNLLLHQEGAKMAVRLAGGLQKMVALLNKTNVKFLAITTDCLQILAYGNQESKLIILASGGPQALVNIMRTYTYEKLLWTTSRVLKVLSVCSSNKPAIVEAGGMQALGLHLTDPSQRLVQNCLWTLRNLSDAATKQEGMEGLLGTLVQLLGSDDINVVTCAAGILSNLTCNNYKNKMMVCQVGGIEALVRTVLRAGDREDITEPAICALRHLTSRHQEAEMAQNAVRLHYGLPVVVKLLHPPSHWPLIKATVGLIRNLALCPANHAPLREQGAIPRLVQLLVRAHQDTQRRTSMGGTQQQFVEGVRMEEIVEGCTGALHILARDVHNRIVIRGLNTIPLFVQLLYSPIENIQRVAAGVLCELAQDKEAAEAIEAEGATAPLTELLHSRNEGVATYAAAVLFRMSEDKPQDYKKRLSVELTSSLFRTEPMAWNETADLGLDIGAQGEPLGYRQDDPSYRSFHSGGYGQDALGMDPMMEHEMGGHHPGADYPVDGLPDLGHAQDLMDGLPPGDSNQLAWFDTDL
Sequence (O00512 whole entry, further chain, the tested form may be a part): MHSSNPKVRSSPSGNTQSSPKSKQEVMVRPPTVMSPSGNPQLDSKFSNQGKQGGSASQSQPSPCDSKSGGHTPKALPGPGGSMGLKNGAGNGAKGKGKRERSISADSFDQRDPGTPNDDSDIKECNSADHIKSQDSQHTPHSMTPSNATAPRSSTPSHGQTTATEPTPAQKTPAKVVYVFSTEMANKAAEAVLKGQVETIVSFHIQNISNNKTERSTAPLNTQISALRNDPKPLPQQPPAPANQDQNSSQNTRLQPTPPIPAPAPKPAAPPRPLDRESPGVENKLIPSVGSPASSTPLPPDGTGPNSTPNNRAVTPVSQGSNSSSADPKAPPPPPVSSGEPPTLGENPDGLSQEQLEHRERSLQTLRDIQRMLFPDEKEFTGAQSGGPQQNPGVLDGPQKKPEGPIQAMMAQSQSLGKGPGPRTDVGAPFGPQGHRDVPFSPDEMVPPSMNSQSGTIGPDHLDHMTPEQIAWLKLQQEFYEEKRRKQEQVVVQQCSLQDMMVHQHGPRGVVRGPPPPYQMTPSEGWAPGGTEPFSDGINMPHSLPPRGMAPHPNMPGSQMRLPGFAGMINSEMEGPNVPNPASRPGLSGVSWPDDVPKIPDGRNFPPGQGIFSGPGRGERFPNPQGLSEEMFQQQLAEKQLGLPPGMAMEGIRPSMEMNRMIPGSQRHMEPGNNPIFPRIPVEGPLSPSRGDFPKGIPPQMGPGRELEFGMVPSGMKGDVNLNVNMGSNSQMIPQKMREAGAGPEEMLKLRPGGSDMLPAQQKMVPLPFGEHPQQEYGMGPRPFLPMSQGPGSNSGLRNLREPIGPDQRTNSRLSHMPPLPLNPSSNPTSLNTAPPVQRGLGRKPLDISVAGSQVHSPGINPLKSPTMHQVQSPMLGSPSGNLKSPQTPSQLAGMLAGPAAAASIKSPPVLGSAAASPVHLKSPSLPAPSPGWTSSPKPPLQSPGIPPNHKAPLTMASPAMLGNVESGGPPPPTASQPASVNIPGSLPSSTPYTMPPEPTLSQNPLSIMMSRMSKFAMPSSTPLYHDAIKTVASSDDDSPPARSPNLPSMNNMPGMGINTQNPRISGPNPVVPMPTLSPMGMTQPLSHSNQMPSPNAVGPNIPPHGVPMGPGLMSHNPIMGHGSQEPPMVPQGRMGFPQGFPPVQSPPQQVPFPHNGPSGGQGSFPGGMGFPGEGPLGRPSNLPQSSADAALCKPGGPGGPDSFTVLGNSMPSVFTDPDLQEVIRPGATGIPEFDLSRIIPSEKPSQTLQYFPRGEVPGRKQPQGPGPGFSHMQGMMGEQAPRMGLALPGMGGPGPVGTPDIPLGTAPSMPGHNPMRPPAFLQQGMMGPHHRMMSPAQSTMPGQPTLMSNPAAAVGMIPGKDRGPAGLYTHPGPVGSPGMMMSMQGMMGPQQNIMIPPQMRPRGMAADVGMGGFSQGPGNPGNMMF
Protocol Notes: Inhibition of protein interaction between C-terminal 6x-histidine tagged full-length beta-catenin (1 to 781 residues) (unknown origin)/N-terminal biotinylated human BCL9 ( 350 to 375 residues) incubated for 1 hr by Alpha-screen competitive inhibition assay
Assay type: protein-complex assay
Here, each record is paired with measured Ki data.

{"Smiles Code": "Cl.Cl.O=C(Nc1cnc(O[C@H]2CCNC2)c(-c2ccc(F)cc2)c1)c1ccc(O[C@H]2CCNC2)c(-c2ccc(F)c(F)c2)c1", "Target Desc": "beta-catenin-B-cell lymphoma 9 protein complex (Homo sapiens, UniProt P35222)", "Ki": "8.2 µM"}
{"Smiles Code": "Cl.Cl.O=C(O)c1ccc(-c2cc(NC(=O)c3ccc(O[C@H]4CCNC4)c(-c4ccc(F)c(F)c4)c3)ccc2O[C@H]2CCNC2)cc1", "Target Desc": "beta-catenin-B-cell lymphoma 9 protein complex (Homo sapiens, UniProt P35222)", "Ki": "3.7 µM"}
{"Smiles Code": "Cl.Cl.O=C(Nc1ccc(O[C@H]2CCNC2)c(-c2ccc(-c3nn[nH]n3)cc2)c1)c1ccc(O[C@H]2CCNC2)c(-c2ccc(F)c(F)c2)c1", "Target Desc": "beta-catenin-B-cell lymphoma 9 protein complex (Homo sapiens, UniProt P35222)", "Ki": "4.6 µM"}
{"Smiles Code": "Cc1ccc(-c2cc(NC(=O)c3ccc(O[C@H]4CCNC4)c(-c4ccc(F)c(F)c4)c3)ccc2O[C@H]2CCNC2)cc1.Cl.Cl", "Target Desc": "beta-catenin-B-cell lymphoma 9 protein complex (Homo sapiens, UniProt P35222)", "Ki": "6.5 µM"}

From here, focus on the item given below.
Ki lookup needed for Cl.Cl.NS(=O)(=O)c1ccc(-c2cc(NC(=O)c3ccc(O[C@H]4CCNC4)c(-c4ccc(F)c(F)c4)c3)ccc2O[C@H]2CCNC2)cc1 , thanks.
5.6 µM

###

Target Desc: beta-catenin-B-cell lymphoma 9 protein complex (Homo sapiens, UniProt P35222)
Protocol Notes: Inhibition of protein interaction between beta-catenin (unknown origin)/BCL9 in HEK293 cells transfected with beta-catenin assessed as reduction in Wnt/beta-catenin transactivation incubated for 24 hrs by Wnt-responsive TOP-Flash luciferase reporter assay
Type: cell-based
pIC50: −log10 of the molar value.
Here, each record is paired with measured pIC50 data.

The following compounds have reported results that may help.
{"Smiles Code": "Cl.Cl.NS(=O)(=O)c1ccc(-c2cc(NC(=O)c3ccc(O[C@H]4CCNC4)c(-c4ccc(F)c(F)c4)c3)ccc2O[C@H]2CCNC2)cc1", "Target Desc": "beta-catenin-B-cell lymphoma 9 protein complex (Homo sapiens, UniProt P35222)", "Reported Endpoint": "pIC50", "Recorded Value": "< 3.70"}
{"Smiles Code": "Cl.Cl.N#Cc1ccc(-c2cc(NC(=O)c3ccc(O[C@H]4CCNC4)c(-c4ccc(F)c(F)c4)c3)ccc2O[C@H]2CCNC2)cc1", "Target Desc": "beta-catenin-B-cell lymphoma 9 protein complex (Homo sapiens, UniProt P35222)", "Reported Endpoint": "pIC50", "Recorded Value": "< 4.60"}

pIC50 lookup needed for Cl.Cl.N#Cc1cccc(-c2cc(NC(=O)c3ccc(O[C@H]4CCNC4)c(-c4ccc(F)c(F)c4)c3)ccc2O[C@H]2CCNC2)c1 , thanks.
< 4.60
